Below, each entry is listed with its recorded relative KD to parent.
Biological target: T1, His-tagged CEACAM1 (human, UniProt P13688 35-428)
T1 construct: 45 kDa SPR analyte; also called CEACAM1-HIS; CEACAM1 analyte
T1 sequence: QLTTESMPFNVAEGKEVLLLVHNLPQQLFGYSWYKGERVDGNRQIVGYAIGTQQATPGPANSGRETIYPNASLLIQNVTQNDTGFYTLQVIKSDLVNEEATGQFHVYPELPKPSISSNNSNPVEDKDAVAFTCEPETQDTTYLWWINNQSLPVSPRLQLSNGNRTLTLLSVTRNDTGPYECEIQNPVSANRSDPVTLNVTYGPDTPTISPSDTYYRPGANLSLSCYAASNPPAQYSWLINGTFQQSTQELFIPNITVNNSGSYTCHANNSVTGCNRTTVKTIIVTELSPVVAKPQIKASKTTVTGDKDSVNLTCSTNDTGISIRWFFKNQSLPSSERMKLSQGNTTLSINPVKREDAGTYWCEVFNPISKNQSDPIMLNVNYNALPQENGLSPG
Assay: SPR single-cycle, supernatant IgG captured
Please give only the number in your answer, with no unit.

binder="CP09E05/CP08E01 (antibody, IgG4, V domains shown, IgG4 (S241P), kappa) VH: EVQLLESGGGLVQPGGSLRLSCAASGFIFSSHGMSWVRQAPGKGLEWVATISSGGTYTYYPDSVKGRFTISRDNSKNTLYLQMNSLKAEDTAMYYCARHGFDYDAAWFAYWGQGTLVTVSS VL: EIVLTQSPATLSLSPGERATLSCRANSAVSYMYWYQQKPGQAPRPWIYLTSNRATGVPARFSGSGSGTDYTLTISSLEPEDFAVYYCQQWTTFPPTFGQGTKLEIK" measured=1.7
binder="CP09B03/CP08D02 (antibody, IgG4, V domains shown, IgG4 (S241P), kappa) VH: EVQLLESGGGLVQPGGSLRLSCAASGFTFNAHAISWVRQAPGKGLEWVATISSGGTYTYYPDSVKGRFTISRDNSKNTLYLQMNSLKAEDTAMYYCARHDFDYDAAWFAYWGQGTLVTVSS VL: EIVLTQSPATLSLSPGERATLSCRANSAVSYMYWYQQKPGQAPRPWIYLTSNRATGVPARFSGSGSGTDYTLTISSLEPEDFAVYYCQQWTSFPPTFGQGTKLEIK" measured=1.9

Here's the next entry for you.
Could you tell me which relative KD to parent is on file for CP09E05/CP08F05 (antibody, IgG4, V domains shown, IgG4 (S241P), kappa) VH: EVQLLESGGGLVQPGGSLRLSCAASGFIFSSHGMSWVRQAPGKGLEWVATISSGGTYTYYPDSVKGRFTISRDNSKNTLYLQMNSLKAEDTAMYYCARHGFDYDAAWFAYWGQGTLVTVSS VL: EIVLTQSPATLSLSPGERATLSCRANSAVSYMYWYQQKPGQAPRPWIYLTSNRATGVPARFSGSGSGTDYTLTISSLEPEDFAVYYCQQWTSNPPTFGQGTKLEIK ?
2.2
